protocol-details: hypoxia reporter signal reduction in M. tuberculosis – fluorescence, absorbance growth readout, primary screen (AID 1159583)
reported-conditions: M. tuberculosis hypoxia-regulated fluorescent reporter, stronger effect = higher value, concentration not given here; measured here: M. tuberculosis growth (absorbance)
In all, about 300,000 compounds went through this assay and about 310 (0.1%) were called active. The sample as a whole holds a higher share of actives than the screen did.
value-kind: growth inhibition (%)
// return numeric value only (unit: %, not printed)

Previously resolved entries follow.
>>> print(df.to_string())
                                   molecule  measurement_units  number
0                    CCOC(=O)NN=CC=Cc1ccco1                  %    6.05
1          C/C(C=NNC(=O)Cc1cccs1)=C\c1ccco1                  %    5.57
2  CCN1C(=O)C2C(c3ccc(-c4cccc(Cl)c4)cc3)N[C@@](C)(C(=O)OC)C2C1=O (some centres undefined)                  %    17.5
3        O=C1CSC(=S)N1N=Cc1ccc(C(F)(F)F)cc1                  %    14.7
4  CCOc1ccc2c(c1)C(c1ccc(C)cc1)=NNC(c1ccc(C)cc1)=N2                  %    10.8

Inquiry: Specify measured growth inhibition for `Cc1cc(C=NO)c(C)n1-c1ccccc1` .
Reply text: 1.78

---

protocol-details: hypoxia reporter signal reduction in M. tuberculosis – fluorescence, absorbance growth readout, primary screen (AID 1159583)
reported-conditions: M. tuberculosis hypoxia-regulated fluorescent reporter, stronger effect = higher value, concentration not given here; measured here: M. tuberculosis growth (absorbance)
Hit rate of the full screen: of about 300,000 compounds, about 310 (0.1%) were called active. Many of the other results were omitted from the sample, so actives are more common in it than they were.
Listed molecules paired with reported growth inhibition
Quote the value and follow it with the unit of measurement.

Previously resolved entries follow.
>>> df
                                   molecule         value_kind  result
0  Cc1cc(C(=O)NN=Cc2ccc(-c3ccc([N+](=O)[O-])cc3C)o2)n[nH]1  growth inhibition   1.96%
1  CC(C)CCn1c(=O)c(C(=O)NN=Cc2cccc(F)c2)c(O)c2ccccc21  growth inhibition   2.73%
2                      C=CCNC(=S)N=c1sccn1C  growth inhibition  -7.89%
3  CC1(C)CC(=O)CC(=NNC(=O)C2CC2c2ccccc2)C1 (stereo not drawn)  growth inhibition   15.1%
4  CC(CC(O)(C=NO)c1ccccc1)=NO (stereo not drawn)  growth inhibition   6.39%

Inquiry: Specify measured growth inhibition for `COCCCNC(=S)NN=Cc1ccc(N(C)C)cc1` .
Reply text: 2.41%

---

protocol-details: hypoxia reporter signal reduction in M. tuberculosis – fluorescence, absorbance growth readout, primary screen (AID 1159583)
reported-conditions: M. tuberculosis hypoxia-regulated fluorescent reporter, stronger effect = higher value, concentration not given here; measured here: M. tuberculosis growth (absorbance)
Hit rate of the full screen: of about 300,000 compounds, about 310 (0.1%) were called active. For the sample, actives were picked, then their nearest neighbours and some compounds at random.
Listed compounds paired with reported growth inhibition
// return numeric value only (unit: %, not printed)

Previously resolved entries follow.
>>> print(df.to_string())
                                   compound  measurement_units  number
0  CCn1c(SCC(=O)NN=C(C)c2ccco2)nnc1-c1ccccc1                  %   -5.95
1  Cc1ccc(F)c(C2C3C=CCC[C@@]3(C)C(=O)N2Cc2ccccc2)c1 (some centres not stated)                  %    4.91
2  CCOc1ccc(-c2cc(C)[n+](CCN(CC)CC)c(-c3ccc(OCC)cc3)c2)cc1                  %    33.9
3  COc1ccc(C2C=CCN(S(C)(=O)=O)C(C)C(=O)N2Cc2ccc(F)cc2)cc1 (configuration not stated)                  %    13.9
4           CCOc1ccc(-c2nnc3ccc(SC)nn23)cc1                  %     1.4

Inquiry: Specify measured growth inhibition for `COc1cccc(C(=O)NN=C(c2ccccc2)c2ccccn2)c1` .
Reply text: 11

Inquiry: Specify measured growth inhibition for `COc1cc(C=NNC(=O)C(=O)NCc2cccnc2)cc(OC)c1OC` .
Reply text: 2.3

Inquiry: Specify measured growth inhibition for CC1CN=C(Nc2ccccc2)N1CCCC1CCCCC1 (configuration not stated) .
Reply text: 4.93
